Target: Sodium-dependent dopamine transporter (Rattus norvegicus) (UniProt P23977)
Sequence (P23977 whole entry): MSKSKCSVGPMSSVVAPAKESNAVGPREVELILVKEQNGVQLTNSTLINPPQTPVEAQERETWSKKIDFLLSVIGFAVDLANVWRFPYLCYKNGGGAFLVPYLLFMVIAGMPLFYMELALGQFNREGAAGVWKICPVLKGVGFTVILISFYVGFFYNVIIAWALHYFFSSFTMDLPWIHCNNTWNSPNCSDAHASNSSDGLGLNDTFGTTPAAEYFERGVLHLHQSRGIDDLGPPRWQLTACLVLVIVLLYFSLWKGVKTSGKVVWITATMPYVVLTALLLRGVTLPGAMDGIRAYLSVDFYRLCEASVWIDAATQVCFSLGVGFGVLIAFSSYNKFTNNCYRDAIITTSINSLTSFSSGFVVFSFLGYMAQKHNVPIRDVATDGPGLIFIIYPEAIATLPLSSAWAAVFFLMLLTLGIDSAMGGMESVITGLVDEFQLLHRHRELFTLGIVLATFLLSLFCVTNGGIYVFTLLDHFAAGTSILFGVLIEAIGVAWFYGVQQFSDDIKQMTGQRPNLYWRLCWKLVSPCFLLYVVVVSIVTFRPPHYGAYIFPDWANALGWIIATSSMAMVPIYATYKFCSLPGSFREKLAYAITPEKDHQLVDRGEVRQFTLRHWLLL
Experiment: In vitro ability to inhibit the [3H]WIN-35428 binding to cocaine binding site on dopamine transporter in rat striatal membranes irreversibly after three washes.
Format: cell membranes
Parameters: concentration or dose not given beside the values
Conditions: Striatum; Membrane
READOUT_LABEL: Control (%)

CN1C2CC[C@@H]1C[C@H](OC(=O)c1ccccc1)[C@@H]2C(=O)OCCc1ccc(N=[N+]=[N-])cc1 | 49
CN1C2CC[C@@H]1C[C@H](c1ccc(Cl)cc1)[C@@H]2C(=O)OCCc1ccc(N=[N+]=[N-])c(I)c1 | 16
CN1C2CC[C@@H]1C[C@H](c1ccc(Cl)cc1)[C@@H]2C(=O)OCCc1ccc(NC(=O)CBr)cc1 | 34
CN1C2CC[C@@H]1C[C@H](c1ccc(Cl)cc1)[C@@H]2C(=O)OCCc1ccc(N=[N+]=[N-])cc1 | 26
CN1C2CC[C@@H]1C[C@H](c1ccc(Cl)cc1)[C@@H]2C(=O)OCCc1ccc(N=C=S)cc1 | 30
COC(=O)[C@@H]1C2CC[C@H](C[C@@H]1c1ccc(N=[N+]=[N-])c(I)c1)N2C | 5
CN1C2CC[C@@H]1C[C@H](OC(=O)c1ccccc1)[C@@H]2C(=O)OCCc1ccc(NC(=O)CBr)cc1 | 38

###

Molecular target: Sodium-dependent dopamine transporter (Rattus norvegicus)
Sequence (P23977 whole entry): as above
Test: Inhibition of […] binding to the dopamine transporter in rat striatal membranes.
pIC50: −log10 of the molar value.
READOUT_LABEL: pIC50

CN1C2CC[C@@H]1C[C@H](OC(=O)c1ccccc1)[C@@H]2C(=O)OCCCc1ccccc1 | 6.86
CN1C2CC[C@@H]1C[C@H](c1ccc(Cl)cc1)[C@@H]2C(=O)OCCc1ccc(NC(=O)CBr)cc1 | 8.76
CN1C2CC[C@@H]1C[C@H](OC(=O)c1ccccc1)[C@@H]2C(=O)OCCc1ccc([N+](=O)[O-])cc1 | 6.22
CN1C2CC[C@@H]1C[C@H](c1ccc(Cl)cc1)[C@@H]2C(=O)OCCc1ccc(N=[N+]=[N-])c(I)c1 | 7.84
CN1C2CC[C@@H]1C[C@H](c1ccc(Cl)cc1)[C@@H]2C(=O)OCCc1ccc(N=C=S)cc1 | 8.28
CN1C2CC[C@@H]1C[C@H](c1ccc(Cl)cc1)[C@@H]2C(=O)OCCc1ccc(N)c(I)c1 | 8.60
CN1C2CC[C@@H]1C[C@H](c1ccc(Cl)cc1)[C@@H]2C(=O)OCCc1ccc(N)cc1 | 8.67
CN1C2CC[C@@H]1C[C@H](OC(=O)c1ccccc1)[C@@H]2C(=O)OCCc1ccc(N=[N+]=[N-])cc1 | 6.64
CN1C2CC[C@@H]1C[C@H](OC(=O)c1ccccc1)[C@@H]2C(=O)OCCc1ccc(N=C=S)cc1 | 6.71
COC(=O)[C@@H]1C2CC[C@H](C[C@@H]1c1ccc(N=[N+]=[N-])c(I)c1)N2C | 8.31
CN1C2CC[C@@H]1C[C@H](OC(=O)c1ccccc1)[C@@H]2C(=O)OCCc1ccccc1 | 6.61
CN1C2CC[C@@H]1C[C@H](OC(=O)c1ccccc1)[C@@H]2C(=O)OCCc1ccc(N)cc1 | 7.14
CN1C2CC[C@@H]1C[C@H](OC(=O)c1ccccc1)[C@@H]2C(=O)OCCc1ccc(NC(=O)CBr)cc1 | 7.21
COC(=O)[C@@H]1C2CC[C@H](C[C@@H]1c1ccc(N)c(I)c1)N2C | 8.87
CN1C2CC[C@@H]1C[C@H](c1ccc(Cl)cc1)[C@@H]2C(=O)OCCc1ccc([N+](=O)[O-])cc1 | 8.57
CN1C2CC[C@@H]1C[C@H](c1ccc(Cl)cc1)[C@@H]2C(=O)OCCc1ccc(N=[N+]=[N-])cc1 | 8.21
